Origin of the recorded values: paper PMC10293810

system: T1, TREX1 catalytic core (murine, UniProt Q91XB0 1-242)
T1 sequence: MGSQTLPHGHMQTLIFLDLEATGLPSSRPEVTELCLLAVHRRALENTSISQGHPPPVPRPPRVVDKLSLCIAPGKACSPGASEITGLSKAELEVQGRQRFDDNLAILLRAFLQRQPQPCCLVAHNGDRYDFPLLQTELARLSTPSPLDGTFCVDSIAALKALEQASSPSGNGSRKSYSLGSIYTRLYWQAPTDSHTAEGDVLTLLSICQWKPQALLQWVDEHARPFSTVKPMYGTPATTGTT
method.description: fluorescence polarization; 25 C; apparent Kd; FP with 5 nM ligand at 25 C (some FPCD at 4 C); buffer for MS2-CP (BB6): 100 mM Tris pH 7.5, 10 mM MgCl2, 80 mM KCl, 0.1 mg/mL BSA; other buffers not in material
condition.details: protein: recombinant; tags: MBP fusion, cleaved by protease; chain copies: 2; label: 5' fluorophore (FP)
measured.metric: Kd (nM)
Dear colleague, please return just the value in nM, with no unit written.

Given GACTG (ssDNA) [[F]d(N)5] , state its recorded Kd. 8.9
